Origin of measurements: the supplement of paper PMC11780869

Test system: Bacillus subtilis
experiment_description: cleaved RNA product abundance (RNA/gDNA barcode ratio) relative to median wild-type variant (ratio to wild type); higher = more accumulation of the downstream cleavage product
condition_details: experiment (reporter, strain, medium): exp 4a: truncated aprE reporter, strain BJT201 with 2% xylose (RNase J1 expressed); cleavage site: cggR-gapA (positions -7 to +36 mutated)
endpoint_name: cleaved RNA product abundance
Numbers only.

Study these solved cases before continuing.
>  <residue_codes>
ACAGACGAAGGAGCCGCAAAGAAGTTATTAAGGGATGAATAAACCCTCAATATAAAAATCTCTCACTTATTTAAA

>  <numeric_readout>
0.519

$$$$
>  <residue_codes>
ACAGACGAAGGAGCCGCAAAGAAGTTATTAAGGGATGAATAATCCCTCAATTTATATATCTCTCACTTATTTAAA

>  <numeric_readout>
0.2

$$$$
>  <residue_codes>
ACAGACGAAGGAGCCGCAAAGAAGTTATTAAGGGATGAATAATACCTCAATATAAACATCTCTCACTTATTTAAA

>  <numeric_readout>
0.108

$$$$
>  <residue_codes>
ACAGACGAAGGAGCCGCAAAGAAGTTATTAAGGGCTGAATAATCCCTCAATATAAATATCTCTCACTTATTTAAA

>  <numeric_readout>
0.593

$$$$
>  <residue_codes>
ACAGACGAAGGAGCCGCAAAGAAGTGATTAAGGGATGAATAATCCATCAATATAAATATCTCTCACTTATTTAAA

>  <numeric_readout>
0.257

$$$$
>  <residue_codes>
ACAGACGAAGGAGCCGCAAAGAAGTTATTAAAGGATGAATAATCCCTCAATATAATTATCTCTCACTTATTTAAA

>  <numeric_readout>
0.161

$$$$
>  <residue_codes>
ACAGACGAAGGAGCCGCAAAGAAGTTAGAAAGGGATGAATAATCCCTCAATATAAATATCTCTCACTTATTTAAA

>  <numeric_readout>
0.426

$$$$
>  <residue_codes>
ACAGACGAAGGAGCCGCAAAGAACTTATTAAGGGATGAATAATCCATCAATATAAATATCTCTCACTTATTTAAA

>  <numeric_readout>
0.209

$$$$
>  <residue_codes>
ACAGACGAAGGAGCCGCATAGAAGTTATTAAGGGATGAATAATCCATCAATATAAATATCTCTCACTTATTTAAA

>  <numeric_readout>
0.245

$$$$
>  <residue_codes>
ACAGACGAAGGAGCCGCAAAGAATTTATTAAGGGATTAATAATCCCTCAATATAAATATCTCTCACTTATTTAAA

>  <numeric_readout>
0.772

$$$$

Hi team, please reply with cleaved RNA product abundance for each item in this list.
1. ACAGACGAAGGAGCCGCAAAGAAGTTAATAAGGGATGACTAATCCCTCAATATAAATATCTCTCACTTATTTAAA
2. ACAGACGAAGGAGCCGCAAAGAAGTTATTAAGGGATGAAAAATCCCTCAATATAAAAATCTCTCACTTATTTAAA
3. ACAGACGAAGGAGCCGCAAAGAATGTATTAAGGGATGAATAATCCCTCAATATAAATATCTCTCACTTATTTAAA
4. ACAGACGAAGGAGCCGCAAAGAACTTATTAAGGGATCAATAATCCCTCAATATAAATATCTCTCACTTATTTAAA
5. ACAGACGAAGGAGCCGCATAGAAGTTATTAAGGGATGCATAATCCCTCAATATAAATATCTCTCACTTATTTAAA
6. ACAGACGAAGGAGCCGCAAAGAAGTTATTAAGGGATGAATAATGCCTCATTATAAATATCTCTCACTTATTTAAA

1: 0.308; 2: 0.692; 3: 0.695; 4: 0.27; 5: 0.933; 6: 0.127

----------
System: Bacillus subtilis
experiment_description: cleaved RNA product abundance (RNA/gDNA barcode ratio) relative to median wild-type variant (ratio to wild type); higher = more accumulation of the downstream cleavage product
condition_details: experiment (reporter, strain, medium): exp 8a: truncated aprE reporter, strain BJT201 with 2% xylose (RNase J1 expressed); cleavage site: glnRA (positions -5 to +31 mutated)
endpoint_name: cleaved RNA product abundance
Answers are plain numbers.

Study these solved cases before continuing.
>  <residue_codes>
CGACATGTCCCGCTTCTTTCATTAATCCGTTAGCAACTGTTTCGCTATACACATTTACCTTTTAAGAGGAGGAAT

>  <numeric_readout>
0.222

$$$$
>  <residue_codes>
CGACATGTCCCGCTTCTTTCATTAATCCGTTAGCAATTGTTTTGCTATATACATTTACTTTTTAAGAGGAGGAAT

>  <numeric_readout>
1.01

$$$$
>  <residue_codes>
CGACATGTCCCGCTTCTTTCATTAATCCGTTCGCAACTGTTATGCTATATACATTTACCTTTTAAGAGGAGGAAT

>  <numeric_readout>
0.349

$$$$

Hi team, please reply with cleaved RNA product abundance for each item in this list.
1. CGACATGTCCCGCTTCTTTCATTAATCCGTTACCAACAGTTTTGCTATATACATTTACCTTTTAAGAGGAGGAAT
2. CGACATGTCCCGCTTCTTTCATTAATCCGATATCAACTGTTTTGCTATATACATTTACCTTTTAAGAGGAGGAAT
3. CGACATGTCCCGCTTCTTTCATTAATCCGTTAGCAAATGTTTTACTATATACATTTACCTTTTAAGAGGAGGAAT
4. CGACATGTCCCGCTTCTTTCATTAATCCGTTAGCAACTGATTTGCTATATACATTTACCTTTTAAGAGGAGGAAT
5. CGACATGTCCCGCTTCTTTCATTAATCCGTAAGCAACTGTTTGGCTATATACATTTACCTTTTAAGAGGAGGAAT

[0.215, 0.242, 0.73, 0.96, 0.371]

Hi team, please reply with cleaved RNA product abundance for each item in this list.
1. CGACATGTCCCGCTTCTTTCATTAATCCGTTAGCAACTGTTTTGCTATATTCATTTACCTTTTAAGAGGAGGAAT
2. CGACATGTCCCGCTTCTTTCATTACTCCGTTAGCAACTGTTTTGCTATATACATTTACCTTTTAAGAGGAGGAAT
3. CGACATGTCCCGCTTCTTTCATTAATCCGTTGCCAACTGTTTTGCTATATACATTTACCTTTTAAGAGGAGGAAT
4. CGACATGTCCCGCTTCTTTCATTAATACGTTAGCAACTGTTTTGCTATATAAATTTACCTTTTAAGAGGAGGAAT

1: 0.233; 2: 1.1; 3: 0.264; 4: 1.02

Hi team, please reply with cleaved RNA product abundance for each item in this list.
1. CGACATGTCCCGCTTCTTTCATTACTCCGTTAGCAACTGTTTTGCTATAAACATTTACCTTTTAAGAGGAGGAAT
2. CGACATGTCCCGCTTCTTTCATTAATCCGTGAGCAACTGTTTTGCTATATAAATTTACCTTTTAAGAGGAGGAAT
3. CGACATGTCCCGCTTCTTTCATTAATCCGTTAGCAACTGTATTGCAATATACATTTACCTTTTAAGAGGAGGAAT
4. CGACATGTCCCGCTTCTTTCATTACTCCGTTAGCAACTGTGTTGCTATATACATTTACCTTTTAAGAGGAGGAAT
5. CGACATGTCCCGCTTCTTTCATTAATCCGTTAGCAACTATTTTGCTATATACATTTAGCTTTTAAGAGGAGGAAT
6. CGACATGTCCCGCTTCTTTCATTATTCCGTTAGAAACTGTTTTGCTATATACACTTACCTTTTAAGAGGAGGAAT
7. CGACATGTCCCGCTTCTTTCATTAATCCGTTAGCCACTGTATTGCTATATACATTTACCTTTTAAGAGGAGGAAT
8. CGACATGTCCCGCTTCTTTCATTAATCCGTTATCAACTCTTTTGCTATATACATTTACCTTTTAAGAGGAGGAAT

1. 0.608
2. 0.357
3. 0.678
4. 0.327
5. 1.16
6. 0.302
7. 0.376
8. 0.252

----------
Test system: Bacillus subtilis
experiment_description: cleaved RNA product abundance (RNA/gDNA barcode ratio) relative to median wild-type variant (ratio to wild type); higher = more accumulation of the downstream cleavage product
condition_details: experiment (reporter, strain, medium): exp 4a: truncated aprE reporter, strain BJT201 with 2% xylose (RNase J1 expressed); cleavage site: cggR-gapA (positions -7 to +36 mutated)
Response key: 1 means cleaved RNA product abundance >= 0.5; 0 means cleaved RNA product abundance < 0.5.

Examples from the recorded data:
>  <residue_codes>
ACAGACGAAGGAGCCGCAAAGAAGTCTTTAAGGGATGAATAATCCCTCAATATAAATATCTCTCACTTATTTAAA

>  <class_assignment>
0

$$$$
>  <residue_codes>
ACAGACGAAGGAGCCGCAACGATGTTATTAAGGGATGAATAATCCCTCAATATAAATATCTCTCACTTATTTAAA

>  <class_assignment>
1

$$$$
>  <residue_codes>
ACAGACGAAGGAGCCGCAAAGAAGTTATTAAGGGTTAAATAATCCCTCAATATAAATATCTCTCACTTATTTAAA

>  <class_assignment>
1

$$$$
>  <residue_codes>
ACAGACGAAGGAGCCGCAAAGAAGTTATTAAGGCATGAATAATCCCACAATATAAATATCTCTCACTTATTTAAA

>  <class_assignment>
0

$$$$
>  <residue_codes>
ACAGACGAAGGAGCCGCAAAGAAGTTATTAAGGGATGAATATCCCCTCAATATAAATATCTCTCACTTATTTAAA

>  <class_assignment>
0

$$$$
>  <residue_codes>
ACAGACGAAGGAGCCGCAAAGAAATTATTAAGGGATGAATAATCCCTTAATATAAATATCTCTCACTTATTTAAA

>  <class_assignment>
0

$$$$

Please examine the following record next.
Check if cleaved RNA product abundance >= 0.5 (inclusive). Item: "ACAGACGAAGGAGCCGCAAAGAAGTTATTAATGGATGAATAATTCCTCAATATAAATATCTCTCACTTATTTAAA"
0
